Numbers sourced from ChEMBL document CHEMBL1201862.

Task for the reader: assign each of the following compounds its reported EC50.
TEST_SYSTEM: Streptokinase A (Streptococcus pyogenes serotype M1, UniProt P10520)
Sequence (P10520 whole entry): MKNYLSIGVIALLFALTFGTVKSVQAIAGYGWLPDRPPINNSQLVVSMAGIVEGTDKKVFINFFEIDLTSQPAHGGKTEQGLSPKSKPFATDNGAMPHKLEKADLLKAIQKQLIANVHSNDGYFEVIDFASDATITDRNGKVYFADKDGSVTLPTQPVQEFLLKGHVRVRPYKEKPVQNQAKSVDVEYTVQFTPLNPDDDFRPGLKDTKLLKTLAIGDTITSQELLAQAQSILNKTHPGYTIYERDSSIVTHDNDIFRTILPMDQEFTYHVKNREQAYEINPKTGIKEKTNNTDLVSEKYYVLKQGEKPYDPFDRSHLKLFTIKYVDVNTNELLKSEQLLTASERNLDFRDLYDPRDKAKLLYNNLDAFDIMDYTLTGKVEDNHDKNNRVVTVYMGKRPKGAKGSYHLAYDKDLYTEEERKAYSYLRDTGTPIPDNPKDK
MEASUREMENT_NOTES: viability-normalized secreted streptokinase activity reduction – plasminogen activation absorbance, OD405, dose response (AID 1914);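 further: secreted streptokinase activity via plasminogen activation per viability signal from cell pellet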
Format: functional, Streptococcus pyogenes M1 GAS
Active and inactive are the calls of the source.

Some compounds with recorded EC50:
Cc1cccc(NC(=O)NCc2ccc3c(c2)OCO3)c1	> 150 µM (not active)
CC(=O)c1cccc(OC(=O)c2ccc3c(=O)n4c(nc3c2)CCC4)c1	> 150 µM (not active)
Brc1ccc(Nc2ncnc3[nH]ncc23)cc1	> 150 µM (not active)
CC(C)(C)Nc1nc(-c2ccccn2)nc2ccccc12	> 150 µM (not active)
COc1ccc(C(=O)c2ccc(N3CCN(C4CC(=O)NC4=O)CC3)cc2)cc1F (stereo not drawn)	> 150 µM (not active)

Give measured EC50 for every item shown.
1. O=C(Nc1ccc2ccccc2c1)c1ccc(NS(=O)(=O)c2ccc(Br)s2)cc1
2. CCCCCC(=O)NC(=S)NC1C2CC3CC(C2)CC1C3 (stereo not drawn)
3. O=C(CSc1nnc(NC(=O)c2ccccc2[N+](=O)[O-])s1)NC1CCCC1
4. Cc1ccc(C)c(NC(=S)N/N=C2/CCCCc3ccccc32)c1
5. CCn1nc(-c2ccccc2)nc2c(=O)n(C)c(=O)nc1-2

Output:
["> 150 µM (not active)", "11.5 µM (active)", "> 150 µM (not active)", "> 150 µM (not active)", "> 150 µM (not active)"]

---

TEST_SYSTEM: Kappa-type opioid receptor (Homo sapiens, UniProt P41145)
Sequence (P41145 whole entry): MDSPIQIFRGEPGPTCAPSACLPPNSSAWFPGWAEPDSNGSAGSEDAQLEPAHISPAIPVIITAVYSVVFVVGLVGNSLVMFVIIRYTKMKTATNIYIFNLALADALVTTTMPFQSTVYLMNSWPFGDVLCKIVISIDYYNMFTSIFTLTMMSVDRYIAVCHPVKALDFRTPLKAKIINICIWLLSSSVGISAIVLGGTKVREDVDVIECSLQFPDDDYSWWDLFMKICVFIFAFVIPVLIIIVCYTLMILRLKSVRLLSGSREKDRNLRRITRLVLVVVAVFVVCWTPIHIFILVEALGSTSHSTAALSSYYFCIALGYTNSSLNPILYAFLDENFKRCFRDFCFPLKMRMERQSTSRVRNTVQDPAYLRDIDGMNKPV
Type: functional
Activity calls are given as the source filed them.
Respond using exactly one of the listed classes: active, inactive

Worked examples follow.
O=C(NNC(=O)C(c1ccccc1)c1ccccc1)c1ccccn1	active
O=C(CSC1=NNC(c2ccccn2)S1)Nc1ccc(C(F)(F)F)cc1 (centres undefined)	inactive
CCOc1cc(CNC2CCCC2)cc(Cl)c1OCc1ccccc1	active

// next entry
Input: Record request — test call for O=C(OCn1ncc(Br)c(Br)c1=O)c1ccc(F)cc1
Output: active

---

TEST_SYSTEM: Large T antigen (Simian virus 40);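 further: Confirmatory-stage PubChem screen for compounds that inhibit SV40 T antigen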
Sequence (P03070 whole entry): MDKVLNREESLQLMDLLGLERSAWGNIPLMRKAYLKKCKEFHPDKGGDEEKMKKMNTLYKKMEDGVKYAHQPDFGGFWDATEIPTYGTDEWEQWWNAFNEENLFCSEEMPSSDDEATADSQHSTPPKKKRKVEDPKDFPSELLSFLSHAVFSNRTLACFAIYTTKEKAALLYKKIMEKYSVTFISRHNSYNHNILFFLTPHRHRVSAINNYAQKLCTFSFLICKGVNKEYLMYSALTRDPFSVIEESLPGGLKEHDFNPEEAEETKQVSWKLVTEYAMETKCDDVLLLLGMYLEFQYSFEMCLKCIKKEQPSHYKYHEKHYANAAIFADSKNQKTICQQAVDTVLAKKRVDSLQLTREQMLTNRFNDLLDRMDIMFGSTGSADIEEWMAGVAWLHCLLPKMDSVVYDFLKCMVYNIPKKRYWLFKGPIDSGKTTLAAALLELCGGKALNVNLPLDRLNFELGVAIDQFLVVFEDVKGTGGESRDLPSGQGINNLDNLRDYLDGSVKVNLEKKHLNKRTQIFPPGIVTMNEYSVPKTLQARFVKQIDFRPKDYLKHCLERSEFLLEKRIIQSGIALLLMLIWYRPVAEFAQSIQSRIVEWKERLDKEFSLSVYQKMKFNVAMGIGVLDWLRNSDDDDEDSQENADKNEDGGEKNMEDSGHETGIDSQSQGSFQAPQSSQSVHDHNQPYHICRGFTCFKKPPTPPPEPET
Type: functional, Betapolyomavirus macacae
The source made the active and inactive calls.
Task for the reader: assign each of the following compounds its reported IC50.

Some compounds with recorded IC50:
CN1CCc2cc(O)cc3c2[C@H]1Cc1ccc(O)c(O)c1-3	9.43 µM (active)
CN(C)c1ccc(NC(=O)CN2C(=O)CN=C(c3ccccc3)c3ccccc32)cc1	11.9 µM (active)
Cc1nc(N)sc1N=Nc1c(C)n(C)n(-c2ccccc2)c1=O	17.3 µM (active)
CCOC(=O)N1CCN(c2cc(NCCC(=O)O)c3c4c(onc24)-c2ccccc2C3=O)CC1	> 100 µM (active)
COc1cc(/C=C2\C(=O)NC(=O)N(CCc3ccc(F)cc3)C2=O)ccc1O	20 µM (active)

Then this compound:
Input: Record COc1cc(/C=N/Nc2ccnc(O)n2)ccc1O : what is its IC50 with Large T antigen (Simian virus 40)?
Output: 6.16 µM (active)
